# credit: the supplement of paper PMC10567573

B1: CDC34 (parent)
chain: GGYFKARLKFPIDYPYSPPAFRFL

# Variants of: B1
# Assay text: protein stability index of a GFP-peptide fusion (GPS, HEK-293T) (PSI 1-6); higher = more stable;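 further: lentivirally expressed fusions sorted by FACS into six bins by GFP to DsRed ratio, PSI derived from sequencing read proportions per bin multiplied by bin number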
# Settings: c terminus: a fixed tail appended
For each of the variants below, state its protein stability index.

Worked examples follow.
GGYFKARLKFPIDYPYRPPAFRFL [S17R]	3.12
GGYFKARLKFPIDYPYGPPAFRFL [S17G]	2.85
GGYFKARLKFPIDYPYSPPAFFFL [R22F]	3.63
GGYFKALLKFPIDYPYSPPAFRFL [R7L]	2.38
GGPFKARLKFPIDYPYSPPAFRFL [Y3P]	3.03
VGYFKARLKFPIDYPYSPPAFRFL [G1V]	2.45

Each variant below has a reported value. Please supply its protein stability index.
1. GGYFKHRLKFPIDYPYSPPAFRFL [A6H]
2. GGYFKARLKFPKDYPYSPPAFRFL [I12K]
3. GGYFKARLKFPIDYPYSPPAIRFL [F21I]
4. GEYFKARLKFPIDYPYSPPAFRFL [G2E]
5. GGYFKARLKFPIDYPYMPPAFRFL [S17M]

1. 3.08
2. 2.61
3. 2.48
4. 1.94
5. 2.9
